Attribute: interaction score
- tested.on: T1, 4H3165-AA
- T1 chain: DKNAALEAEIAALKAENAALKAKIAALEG
- measurement.description: two-hybrid library CCmax;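 also: natural log of median RNA to DNA barcode read ratio; higher means stronger binding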
- condition.set: mean of both orientations
Output: the number by itself.

>>> result_number("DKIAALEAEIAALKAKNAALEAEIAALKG [4H2162-AA]")
-0.865
>>> result_number("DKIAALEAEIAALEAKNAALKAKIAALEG [4H2109-AA]")
-0.391

Let's switch to this binder now.
The reported value for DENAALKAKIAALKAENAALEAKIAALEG [4H1877-AA] in terms of interaction score is 0.715
